- Tested on: Large neutral amino acids transporter small subunit 1 (Homo sapiens, UniProt Q01650)
- Sequence (Q01650 whole entry): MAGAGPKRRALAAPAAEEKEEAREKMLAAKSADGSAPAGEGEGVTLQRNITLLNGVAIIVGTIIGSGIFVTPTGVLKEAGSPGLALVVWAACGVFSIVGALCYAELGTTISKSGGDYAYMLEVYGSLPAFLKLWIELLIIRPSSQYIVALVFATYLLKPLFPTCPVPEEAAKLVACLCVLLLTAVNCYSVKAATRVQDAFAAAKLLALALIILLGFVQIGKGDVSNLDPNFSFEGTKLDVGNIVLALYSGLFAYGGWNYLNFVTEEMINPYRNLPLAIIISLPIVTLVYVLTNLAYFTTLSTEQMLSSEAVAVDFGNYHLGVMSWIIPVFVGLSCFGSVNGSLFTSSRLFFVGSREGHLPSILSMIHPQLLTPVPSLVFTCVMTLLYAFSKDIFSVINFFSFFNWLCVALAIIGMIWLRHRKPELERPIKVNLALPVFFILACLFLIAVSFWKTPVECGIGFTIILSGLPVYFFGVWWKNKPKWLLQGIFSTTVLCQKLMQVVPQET
- Protocol description: Trans-stimulation of human LAT1 expressed in TREx HEK293 cells assessed as induction of [3H]-gabapentin efflux at 200 uM after 3 mins by scintillation counting analysis relative to L-phenylalanine
- Type: cell-based
Result type: Activity (%)

Some entries whose results are on file:
Structure smiles: Cn1cc(C[C@H](N)C(=O)O)nn1
Result type: Activity
Endpoint unit: %
Experimental result: 63
//
Structure smiles: N[C@@H](Cn1cc(Cc2ccccc2)nn1)C(=O)O
Result type: Activity
Endpoint unit: %
Experimental result: 49
//
Structure smiles: N[C@@H](Cc1cn(Cc2ccccc2)nn1)C(=O)O
Result type: Activity
Endpoint unit: %
Experimental result: 43
//
Structure smiles: N[C@@H](Cn1ccnn1)C(=O)O
Result type: Activity
Endpoint unit: %
Experimental result: 82
//
Structure smiles: N[C@@H](Cn1cc(CO)nn1)C(=O)O
Result type: Activity
Endpoint unit: %
Experimental result: 57

(P) Cc1cn(C[C@H](N)C(=O)O)nn1
(Q) N[C@@H](Cn1nnc2ccccc21)C(=O)O
(R) N[C@@H](Cn1cc(-c2ccccc2)nn1)C(=O)O
Data request: Reorder: Activity, max to min. Use the labels to give the ranking in the order requested.
Data returned: Q, P, R
(Q: 100%, P: 70%, R: 37%)

====

- Tested on: Large neutral amino acids transporter small subunit 1 (Homo sapiens)
- Protocol description: Cis-inhibition of human LAT1 expressed in TREx HEK293 cells at 200 uM assessed as inhibition of [3H]-gabapentin uptake preincubated for 3 mins at 37 degC followed by washing with choline buffer and measured after 3 hrs by scintillation counting analysis relative to BCH
- Format: cell-based
Result type: inhibition (%)

Some entries whose results are on file:
Structure smiles: N[C@@H](Cn1cc(CO)nn1)C(=O)O
Experimental result: 14
--
Structure smiles: N[C@@H](Cn1nnc2ccccc21)C(=O)O
Experimental result: 59

(1) N[C@@H](Cn1ccnn1)C(=O)O
(2) Cc1cn(C[C@H](N)C(=O)O)nn1
(3) N[C@@H](Cn1cc(Cc2ccccc2)nn1)C(=O)O
(4) Cn1cc(C[C@H](N)C(=O)O)nn1
(5) N[C@@H](Cn1cc(-c2ccccc2)nn1)C(=O)O
Data request: Reorder: inhibition, max to min. Use the labels to give the ranking in the order requested.
Data returned: 1, 2, 4, 5, 3
(1: 58%, 2: 38%, 4: 20%, 5: 13%, 3: -6%)

====

- Tested on: Large neutral amino acids transporter small subunit 1 (Homo sapiens, UniProt Q01650)
- Protocol description: Cis-inhibition of human LAT1 expressed in TREx HEK293 cells assessed as inhibition of [3H]-gabapentin uptake preincubated for 3 mins at 37 degC followed by washing with choline buffer and measured after 3 hrs by scintillation counting analysis
- Format: cell-based
Result type: IC50 (µM)

(a) N[C@@H](Cn1ccnn1)C(=O)O
(b) Cc1cn(C[C@H](N)C(=O)O)nn1
Data request: Given the two records a and b , choose the one whose IC50 value is lower. Return value: the label identifying the chosen record.
Data returned: a
(a: 160 µM, b: 440 µM)

(P) N[C@@H](Cc1c[nH]cn1)C(=O)O [HISTIDINE]
(Q) N[C@@H](Cn1nnc2ccccc21)C(=O)O
Data request: Given the two records P and Q , choose the one whose IC50 value is lower. Return value: the label identifying the chosen record.
Data returned: P
(P: 110 µM, Q: 340 µM)
